Test system: ragweed (common ragweed, Ambrosia elatior)
Test: Test A postemergence, ragweed
Format: in vivo
Conditions: 500 g ai/ha, 0 to 100 scale
Measured Plant response rating, Ragweed determines class: low group (below 10), middle group (10 to below 60), high group (60 or more)

Enquiry: Form field 'band' for C[C@@H](Nc1ncc(C(F)(F)F)c(N)n1)c1cc2cc(F)ccc2o1
Return: high group

Enquiry: Which bin should I file Cc1cccc(OCC(C)Nc2ncc(C(F)(F)F)c(N)n2)c1 (centres unmarked) under?
Return: middle group

Enquiry: Please indicate the class for Cc1cc(OCC(C)Nc2ncc(C(F)(F)F)c(N)n2)ccc1F (centres unmarked) based on its Plant response rating, Ragweed.
Return: low group

Enquiry: For this compound, which bin applies? C[C@@H](Nc1ncc(C(F)(F)F)c(N)n1)c1ccc2ccccc2c1
Return: middle group

Enquiry: Tag the class for Cc1cc(F)cc(OCC(C)Nc2ncc(C(F)(F)F)c(N)n2)c1 (centres unmarked)
Return: middle group

Enquiry: Bin this entry: CC(Nc1ncc(C(F)(F)F)c(N)n1)C1Cc2ccccc2C1 (racemic)
Return: middle group

Enquiry: Given C[C@@H](Nc1ncc(C(F)(F)F)c(N)n1)c1cc2cc(C(F)(F)F)ccc2o1 , name the class its Plant response rating, Ragweed places it in.
Return: low group

Enquiry: Note: place this compound into its band. Item: CC(COc1cccc(C(F)(F)F)c1)Nc1ncc(C(F)(F)F)c(N)n1 (centres unmarked)
Return: low group

Enquiry: Entry Nc1nc(NC(c2cc3ccccc3o2)C2CC2)ncc1C(F)(F)F (racemic) belongs to which category?
Return: high group

Enquiry: Classify this compound: CC(COc1cc(F)cc(F)c1)Nc1ncc(C(F)(F)F)c(N)n1 (centres unmarked)
Return: low group

Enquiry: Quick check: band for C[C@@H](Nc1ncc(C(F)(F)F)c(N)n1)c1cc2cc(Cl)ccc2o1
Return: middle group

Enquiry: Bin? CC(COc1cccc(F)c1)Nc1ncc(C(F)(F)F)c(N)n1 (centres unmarked)
Return: low group

Enquiry: Into which category would you place CC(COc1cc(Cl)cc(Cl)c1)Nc1ncc(C(F)(F)F)c(N)n1 (centres unmarked) ?
Return: low group

Enquiry: Band for Cc1ccc2cc([C@@H](C)Nc3ncc(C(F)(F)F)c(N)n3)oc2c1 ?
Return: high group

Enquiry: Assign a bin to C[C@@H](Nc1ncc(C(F)(F)F)c(N)n1)c1cc2ccc(Cl)cc2o1
Return: high group

Enquiry: Which category does the recorded Plant response rating, Ragweed put CCC(Nc1ncc(C#N)c(N)n1)c1cc2ccccc2o1 (racemic) in?
Return: high group

Enquiry: Entry Cc1cc2cc([C@@H](C)Nc3ncc(C(F)(F)F)c(N)n3)oc2cc1C belongs to which category?
Return: high group

Enquiry: # bin label for CCc1ccc2oc([C@@H](C)Nc3ncc(C(F)(F)F)c(N)n3)cc2c1
Return: middle group

Enquiry: Band for the recorded Plant response rating, Ragweed of C[C@H](Nc1ncc(C(F)(F)F)c(N)n1)C1Cc2ccccc2C1 ?
Return: low group

Enquiry: Band of Cc1cc2oc([C@@H](C)Nc3ncc(C(F)(F)F)c(N)n3)cc2cc1F ?
Return: high group
